// data source = the RNAGym collection of RNA variant scans (doi:10.1101/gad.245936.114)

B1: tRNA (parent)
chain: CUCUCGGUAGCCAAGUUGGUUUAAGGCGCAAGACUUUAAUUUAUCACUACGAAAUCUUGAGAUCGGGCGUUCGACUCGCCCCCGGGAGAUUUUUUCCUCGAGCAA

- Variants of: B1
- Assay Name: nonsense suppression (GFP-seq) (ratio to wild type); higher = more function; SUP4oc tRNA, yeast GFP reporter sort-seq
Fewer inactive variants are shown than the library holds.
Below, each entry is listed with its recorded nonsense suppression.

Sequence Input	nonsense suppression
CUCUCGGUAGCCAAGUUGGUUUAAGGCGCAAGAGUUUAAUUUAUCACUACGAAAUCUUGAGAUCGGGCGUUCGACUCCCCCCCGGGAGAUUUUUUCCUCGAGCAA [C34G G78C]	≤ 0.026
CUCUCGGUAGCCAAGUUGUUUUAAGGCGCAAGACUUUAAUUUAUCACUACGAAUUCUUGAGAUCGGGCGUUGGACUCGCCCCCGGGAGAUUUUUUCCUCGAGCAA [G19U A54U C72G]	≤ 0.026
CCCUCGGUAGCCAUGUUGGUUUAAGGCGCAAGACUUUAAUUUAUCACUACGAAAUCCUGAGAUCGGGCGUUCGACUCGCCCCCGGGAGAUUUUUUCCUCGAGCAA [U2C A14U U57C]	≤ 0.026
CUCUCGGUCGCCAAGUUGGGUUAAGGCGCAAGACUUUAAUUUAUCACUACGAAAUCUUGAUAUCGGGUGUUCGACUCGCCCCCGGGAGAUUUUUUCCUCGAGCAA [A9C U20G G61U C68U]	≤ 0.026
CUCUCGGUAGCCAAGUUGGUUUAACGCGCGAGUCUUUAAUUUAUCACUACGAAAUCUUGAGAUCGGGCGUUCGACUCGCCCCCGGGAGAUUUUUUCCUCGAGCAA [G25C A30G A33U]	≤ 0.026
CUCUCGGUAGCCAAGUUGGUUUAAGGCGCAAGAUGUUAAUUUAUCACUACGAAAUCCUGAAAUCGGGCGUUCGACUCGCCCUCGGGAGAUUUUUUCCUCGAGCAA [C34U U35G U57C G61A C82U]	≤ 0.026
CACUCGGUAGCCAAGUUGGUUUAAGGCGCAAGACUUUAAUUUAUCACUACGAAAUCUUGAGAUCGGGCGUUCGACUCGCCCCCGGAAGAUUUUUUCCUCGAGCAA [U2A G86A]	≤ 0.026
CUCUCGGUCGCCAAGUUGGUUUAAGGCGCAAGAGUUUAAUUUAUCACUACGAAAUCUUGAGAUCGGGCGUUCGACUCGCCCCCGGGAGAUUUUUUCCUCGAGCAA [A9C C34G]	≤ 0.026
CUCUCGGUACCCAAGUUGGUUUAAGACGCAAGACUUUAAUUUAUCACUACGAAAUCUUGAGAUCAGGCGUUCGACUCGCCCCCGGGUGAUUUUUUCCUCGAGCAA [G10C G26A G65A A87U]	≤ 0.026
CUCUGGGUAGCCAAGUUGGUUUAAGGCGCAAGACUUUAAUUUAUCACUACGAAAUCUUGAGAUCGGGCGUUCGACGCGCCCCCGGGAGAUUUUUUCCUCGAGCAA [C5G U76G]	≤ 0.026
CUCUCGGUAGCCAAGUUGGUUUAAGGCGCGAGACUUUAAUUUAUCACUACGAAAUCUUGACAUCGGGCGUUCGACUCGCCCCCGGGAGAUUUUUUCCUCGAGCAA [A30G G61C]	0.251
CUCUCGGUAGCCAAGUUGGUUUAAGGCGCAAGCCUUUAAUUUAUCACUACGAAAUCGUGAGAUGGGGCGUUCGACUCGCCCCCGGGAGAUUUUUUCCUCGAGCAA [A33C U57G C64G]	≤ 0.026
CUCUCGGUAGCCAAGUUGGUUUAAGGCGCAAGACUUUAAUUUAUCACUACGAAAUCUUGAGAUCGGGCGCUCGACUCGCCCCCGGAAGAUUUUUUCCUCGAGCAA [U70C G86A]	≤ 0.026
CUCUCGCUAGCCAAGUUGGUUCAAGACGCAAGACUUUAAUUUAUCACUACGAAAUCUUGAGAUCGGGCGUUCGACUCGCCCCCGGGAGAUUUUUUCCUCGAGCAA [G7C U22C G26A]	≤ 0.026
CUCUAGGUAGCCAGGUUGGUUUAAGGCGCAAGACUUUAAUUUAUCACUACGAAAUCUUGAGAUCGGGCGUUCGACUCGCCCCCGGGAGAUUUUUUCCUCGAGCAA [C5A A14G]	≤ 0.026
CUCUCGGCAGCCAAGUUGGUUUAAGGCGCACGACUUUAAUUUAUCACUACGAAUUCUUGAGAUCGGGCGUUCGACUCGCCCCCGAGAAAUUUUUUCCUCGAGCAA [U8C A31C A54U G85A G88A]	≤ 0.026
CUCUCGGUAGCCAAGUUGGUUUAAGGCGCAAGACUUUAAUUUAUCACUACGAAAUCUUGAGAUCGAGCGUUCGAUUCGCCCCCGGGAGAUUUUUUCCUCGAGCAA [G66A C75U]	0.368
CUCUCGUUAGCCAAGUUGUUUUAAGGCGCAAGACUUUAAUUUAUCACUACGAAAUCUUGAGAUCGGGCGUUCGACUCGCCCCCGGGAGAUUUUUUCCUCGAGCAA [G7U G19U]	≤ 0.026
CUCUCGGUAGCCAAGUUGGUUGAAGGCGCAAGACUUUAAUUUAUCACUACGAAAUCUUGAGACCGGGCGUUCGACUCGCCCCCGGGAGAUUUUUUCCUCGAGCAA [U22G U63C]	0.868
CUCACGGUAGCCAAGGUGGUUUAAGGCGCAAGACUUUAAUUUAUCACUACGAAAUCUUGAGAUCGGGCGUUCGACUCGCCCCCGGGAGAUUUUUUCCUCGAGCAA [U4A U16G]	0.247
CUCUCGGUAGGCAAGUUGGUUUAAGGCGCAAGACUUUAAUUUAUCACUACGAAAUCUUGAGAUCGGGCGUUGGACUCGCCCCCGGGAGAUUUUUUCCUCGAGCAA [C11G C72G]	≤ 0.026
CUGUCGGUAGCCAAGUUGGUUUAAGGCGCACGACUUUAAUUUAUCACUACGAAAUCUUGAGAUCGGGGGUUCGACUUGCCCCCGGGAGAUUUUUUCCUCGAGCAA [C3G A31C C68G C77U]	≤ 0.026
CUCUCGGUAGCCAAGUUGGUUUAAGGCGCAAGACUUUAAUUUAUCACUACGAAAUCUUGAGAUUGGGCGUGCGACUCGCCCCCGGGAGAUUUUUUCCUCGAGCAA [C64U U71G]	≤ 0.026
CUCUCGGUAGCCAAGUUGGUUUGAGGCGCAAGACUUUAAUUUAUCACUACGAAAUCUUGAGAUCGGGCGUUCCACUCGCCCCCGGGAGAUUUUUUCCUCGAGCAA [A23G G73C]	≤ 0.026
CUCUCGGUAGCCCAGUUGGUUUAAGGCGCAAGACUUUAAUUUAUCACUACGAAAUCUUGAGAUCGGGCGUUCGACUCGCUCCCGGGAGAUUUUUUCCUCGAGCAA [A13C C80U]	0.179
CCCUCGGUAGCCAAGUUGGUUUAAGGCGCAAGACUUUAAUUUAUCACUACGAAAUCUUGAGAUCGGGCGUUCGACUCGCACCCGGGAGAUUUUUUCCUCGAGCAA [U2C C80A]	≤ 0.026
CUCUCGGUAGCCAAGUUGGUUUAUGGCGCAAGACUUUAAUUUAUCACUACGAAAUCUUGAGAUCGGGCGUUCGACUCGCCCCCGGGGGAUUUUUUCCUCGAGCAA [A24U A87G]	0.147
CGCUCGGUAGCCAAGUUGGUUUAAGGCGCAAGACUUUAAUUUAUCACUACGAAAUCUUGAGAUCGGGCGUUCGACUCGCCCCGGGGAGAUUUUUUCCUCGAGCAA [U2G C83G]	≤ 0.026
CUCUCGGUAGCCAAGUUGGUUUAAGGCCCAAGACUUUAAUUUAUCACUACGAAAUCUUGUGAUCGGGCGCUCGACUCGCCCCCGGGAGAUUUUUUCCUCGAGCAA [G28C A60U U70C]	≤ 0.026
CUCGCGGUAGCCAAGUUGGUUUACGGCGCAAGACUUUAAUUUAUCACUACGAAAUCUUGAGAUCGGGCGUUCGACUCGCCCCCGGGAGAUUUUUUCCUCGAGCAA [U4G A24C]	0.134
CUCUCGGUAGCUAAGUUGGUUUAAGGCGCAAGACUUUAAUUUAUCACUACGAAAUGUUGAGAUCGGGCGUUCGACUCGCCCCCGGGAGAUUUUUUCCUCGAGCAA [C12U C56G]	≤ 0.026
CUCUCGGUAGCCAAAUUGGUUUAAGGCGCAAGACUUUAAUUUAUCACUACGAAAUCUUGAGAUCGGGCGUUCGACUCACCCCCGGGAGAUUUUUUCCUCGAGCAA [G15A G78A]	0.0278
CUCUCGGUAGCCAAGUUGGUUUAAGGCGCAAGACUUUAAUUUAUCACUACGAAAUCUUGAGAUCUGGCGUUCGACUCGCCCCCGGAAGAUUUUUUCCUCGAGCAA [G65U G86A]	≤ 0.026
CUCUCGGUAGUCAAGUUGUUUUAAGGCGCAAGACUUUAAUUUAUCACUACGAAAUCUUGAGAUAGGGCGUUCGACUCGCCCCCGGGAGAUUUUUUCCUCGAGCAA [C11U G19U C64A]	≤ 0.026
CUCGCGGUAGCCAAGUUGGUUUAAGGCGCAAGACUUUAAUUUAUCACUACGAAAUUUUGAGAUCGGGCGUUCGACUCGCCCCCGGGAGAUUUUUUCCUCGAGCAA [U4G C56U]	0.0355
CUCUCGGUAGCCAAGUUGGUUUAAGGCGCAAGACUUUAAUUUAUCACUACGAAAUCUUGAAAUCGGGCGUUCGACUCGCCCCCCGGAGAUUUUUUCCUCGAGCAA [G61A G84C]	0.0752
CUCUCGGUAGCCAAGUUGGUUUAAUGCGCAAGACUUUAAUUUAUCACUACGAAAUCUUGAGAGCGGGCGUUCGACUCGCCCCCGGGAGAUUUUUUCCUCGAGCAA [G25U U63G]	0.0371
CUCUCGGUGGCCAGGUUGGUUUAAGGCGCAAGACUUUAAUUUAUCACUACGAAAUCUUGAGAUCGGGCGUUCGACUCGCCCCCGGGAGAUUUUUUCCUCGAGCAA [A9G A14G]	0.0311
CUCUCGGUAGCCAAGUUGGUUUAAGGCCCAAGACUUUAAUUUAUCACUACGAAAUCUUGAGAUCGGGCGUUCGACUCCCCCCCGGGAGAUUUUUUCCUCGAGCAA [G28C G78C]	≤ 0.026
